- tgt: UniProtKB P41146
- Sequence (P41146 whole entry): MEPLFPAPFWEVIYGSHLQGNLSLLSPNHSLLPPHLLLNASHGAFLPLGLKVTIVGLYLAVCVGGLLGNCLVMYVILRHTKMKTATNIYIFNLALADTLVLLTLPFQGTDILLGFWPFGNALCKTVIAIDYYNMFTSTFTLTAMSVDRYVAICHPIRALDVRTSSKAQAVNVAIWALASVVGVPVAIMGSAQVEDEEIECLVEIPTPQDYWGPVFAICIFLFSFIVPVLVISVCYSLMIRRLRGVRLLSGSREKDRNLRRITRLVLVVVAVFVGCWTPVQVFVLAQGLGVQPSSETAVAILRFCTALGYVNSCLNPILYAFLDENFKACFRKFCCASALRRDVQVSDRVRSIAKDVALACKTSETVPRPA
- assayOverview: Cell-Based NOP Assay: Formula (I) compounds were tested for antagonism of the nociceptin receptor (NOP) in a cell-based cAMP assay, using the LANCE cAMP Detection Kit, Perkin Elmer (Waltham, Mass.). This assay (LANCE cAMP) is a homogeneous, time-resolved fluorescence resonance energy transfer (TR-FRET) immunoassay designed to measure cAMP produced upon modulation of adenylyl cyclase activity by G protein-coupled receptors (GPCRs).ProtocolCells expressing human opioid NOP (ValiScreen cell line, cat #ES-230-C Perkin Elmer (Waltham, Mass.) were dispensed in simulation buffer (5 mM Hepes, 0.1% BSA, 0.5 mM IBMX in Hanks Buffered Saline Solution) at 2.5 μL cells per well (400 cells/well) into a 1536 white TC-treated assay plate. Compound was then added and plates were incubated for 15 minutes at room temperature. To each well was added 2.5 μL of a solution containing forskolin (3 μM final) and nociceptin peptide (390 pM final) diluted in stimulation buffer, and the plates were incubated for 30 minutes at room temperature. To each well was dispensed 5 μL of LANCE Ultra detection (1:300 dilution of anti-cAMP ULight with a 1:100 dilution of Eu-cAMP tracer diluted in cAMP Detection Buffer) reagent, and the plates were incubated for 1 hr at room temperature. The plate was then read on the ViewLux microplate reader (Perkin Elmer, Waltham, Mass.) using the LANCE 1536 protocol with 60 second exposure times and 50 μs delay. This protocol has an excitation wavelength of 340 nm (DUG11 filter) and emission wavelengths of 615 nm (Eu-Donor) and 665 nm (Alexa 647 cAMP antibody acceptor).Data AnalysisData was analyzed, normalized, and visualized using ACAS (John McNeil & Co.). Efficacy was calculated using activity of the vehicle (DMSO) as 0% efficacy and the activity of the corresponding reference positive control (SCH 221510, Tocris Bioscience (Pittsburgh, Pa.), Catalog number 3240) as 100% efficacy. Activity was calculated as the ratio of donor and acceptor emissions. All curve fits and IC50 determinations were performed using a non-linear regression model. The IC50 value was measured as the concentration at which half-maximal response was calculated.
pIC50: −log10 of the molar value.
Property: pIC50; scope: individual compounds

{"compound": "CC(=O)N1CCC(NCCC2CCC(c3ccc(F)cc3C)CC2)CC1 (configuration not stated)", "tgt": "UniProtKB P41146", "pIC50": "6.00 to 7.00"}
{"compound": "Fc1ccc([C@H]2CC[C@H](CCNC3CCOCC3)CC2)c(Cl)c1", "tgt": "UniProtKB P41146", "pIC50": "8.00 to 9.00"}
{"compound": "NC(=O)C1(NCC[C@H]2CC[C@H](c3c(F)cc(F)cc3Cl)CC2)CCOCC1", "tgt": "UniProtKB P41146", "pIC50": "8.00 to 9.00"}
{"compound": "Fc1cnc(C2CCC(CCNC3(C4CC4)CCOCC3)CC2)c(Cl)c1 (configuration not stated)", "tgt": "UniProtKB P41146", "pIC50": "7.00 to 8.00"}
{"compound": "Fc1ccc([C@H]2CC[C@H](CCNC3CCOCC3)CC2)c(F)c1", "tgt": "UniProtKB P41146", "pIC50": "8.00 to 9.00"}
{"compound": "NC(=O)C1(NCC[C@H]2CC[C@H](c3ccc(F)cc3F)CC2)CCOCC1", "tgt": "UniProtKB P41146", "pIC50": "6.00 to 7.00"}
{"compound": "Cc1cc(F)cc(F)c1[C@H]1CC[C@@H](CCNC2(C(N)=O)CCOCC2)CC1", "tgt": "UniProtKB P41146", "pIC50": "8.00 to 9.00"}
{"compound": "Cc1cc(F)ccc1[C@H]1CC[C@H](CCNC2(C(N)=O)CCOCC2)CC1", "tgt": "UniProtKB P41146", "pIC50": "7.00 to 8.00"}
{"compound": "CCNC(=O)C1(NCC[C@H]2CC[C@H](c3ncc(F)cc3Cl)CC2)CCOCC1", "tgt": "UniProtKB P41146", "pIC50": "7.00 to 8.00"}
{"compound": "Cc1ccncc1[C@H]1CC[C@@H](CCNC2CCOCC2)CC1", "tgt": "UniProtKB P41146", "pIC50": "6.00 to 7.00"}
{"compound": "O=C(NCC1CC1)C1(NCC[C@H]2CC[C@@H](c3ccc(F)cc3Cl)CC2)CCCC1", "tgt": "UniProtKB P41146", "pIC50": "6.00 to 7.00"}
{"compound": "CC1(NCCC2CCC(c3c(F)cccc3Cl)CC2)CCCC1 (configuration not stated)", "tgt": "UniProtKB P41146", "pIC50": "7.00 to 8.00"}
{"compound": "Fc1cnc(C2CCC(CCNC3CCCCC3)CC2)c(Cl)c1 (configuration not stated)", "tgt": "UniProtKB P41146", "pIC50": "8.00 to 9.00"}
{"compound": "Fc1ccc([C@H]2CC[C@@H](CCNC3CCC(F)(F)C3)CC2)c(Cl)c1 (some centres not stated)", "tgt": "UniProtKB P41146", "pIC50": "> 9.00"}
{"compound": "CNC(=O)C1(NCC[C@H]2CC[C@H](c3ncc(F)cc3Cl)CC2)CCOCC1", "tgt": "UniProtKB P41146", "pIC50": "8.00 to 9.00"}
{"compound": "CCNC(=O)C1(NCC[C@H]2CC[C@@H](c3ncc(F)cc3Cl)CC2)CCOCC1", "tgt": "UniProtKB P41146", "pIC50": "8.00 to 9.00"}
{"compound": "COCC1(NCCC2CCC(c3cnccc3C)CC2)CCOCC1 (configuration not stated)", "tgt": "UniProtKB P41146", "pIC50": "6.00 to 7.00"}
{"compound": "CNC(=O)C1(NCC[C@H]2CC[C@@H](c3ncc(F)cc3Cl)CC2)CCOCC1", "tgt": "UniProtKB P41146", "pIC50": "8.00 to 9.00"}
{"compound": "Cc1cnccc1[C@H]1CC[C@H](CCNC2CCOCC2)CC1", "tgt": "UniProtKB P41146", "pIC50": "6.00 to 7.00"}
{"compound": "O=C1NCCC1NCC[C@H]1CC[C@@H](c2ccc(F)cc2Cl)CC1 (some centres not stated)", "tgt": "UniProtKB P41146", "pIC50": "8.00 to 9.00"}
{"compound": "Clc1cccnc1[C@H]1CC[C@@H](CCNC2CCOCC2)CC1", "tgt": "UniProtKB P41146", "pIC50": "7.00 to 8.00"}
{"compound": "Oc1cccc([C@H]2CC[C@@H](CCNC3CCOCC3)CC2)c1", "tgt": "UniProtKB P41146", "pIC50": "6.00 to 7.00"}
